All values here come from patent US20240309103A1.

Target System: T1, monkey NPR1 extracellular domain expressed with a C-terminal myc-myc-hexahistidine (mfNPR1-MMH) (monkey, UniProt P16066 33-473 (human entry))
T1 construct: also called monomeric monkey NPR1
T1 chain: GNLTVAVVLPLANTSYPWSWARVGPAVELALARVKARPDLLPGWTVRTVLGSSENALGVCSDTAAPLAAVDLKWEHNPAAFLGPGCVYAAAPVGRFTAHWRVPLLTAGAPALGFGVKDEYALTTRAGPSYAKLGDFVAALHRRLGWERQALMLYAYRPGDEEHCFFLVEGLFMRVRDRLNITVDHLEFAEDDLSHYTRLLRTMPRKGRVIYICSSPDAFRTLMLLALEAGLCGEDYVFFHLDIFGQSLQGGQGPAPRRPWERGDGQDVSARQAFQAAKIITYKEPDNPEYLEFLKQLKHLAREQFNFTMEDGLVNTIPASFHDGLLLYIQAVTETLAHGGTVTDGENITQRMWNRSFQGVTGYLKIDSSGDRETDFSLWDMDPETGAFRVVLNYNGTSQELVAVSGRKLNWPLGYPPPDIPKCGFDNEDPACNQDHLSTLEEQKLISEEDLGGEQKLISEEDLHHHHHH
Measurement Protocol: SPR, mAb captured, 25 C
Binarize kon at 400000 M⁻¹ s⁻¹; below is Satisfied, at or above is Not satisfied.

Input line: Does the reported kon of mAb25508 (antibody, V domains shown) VH: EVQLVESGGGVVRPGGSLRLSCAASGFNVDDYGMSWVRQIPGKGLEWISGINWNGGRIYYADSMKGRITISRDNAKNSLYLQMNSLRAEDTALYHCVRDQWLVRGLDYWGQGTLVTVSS VL: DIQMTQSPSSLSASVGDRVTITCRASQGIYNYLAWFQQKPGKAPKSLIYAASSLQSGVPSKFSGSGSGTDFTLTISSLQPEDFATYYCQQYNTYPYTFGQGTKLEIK stay below 400000 M⁻¹ s⁻¹?
Output line: Not satisfied

Input line: Does the reported kon of mAb25491 (antibody, V domains shown) VH: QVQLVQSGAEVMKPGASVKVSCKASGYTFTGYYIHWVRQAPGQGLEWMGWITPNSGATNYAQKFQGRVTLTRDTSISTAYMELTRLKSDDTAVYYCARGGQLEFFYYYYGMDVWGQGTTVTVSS VL: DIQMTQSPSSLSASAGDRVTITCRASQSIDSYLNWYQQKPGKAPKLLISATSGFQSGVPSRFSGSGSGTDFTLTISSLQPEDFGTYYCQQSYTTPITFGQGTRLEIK stay below 400000 M⁻¹ s⁻¹?
Output line: Satisfied

Input line: Does the reported kon of mAb22033 (antibody, V domains shown) VH: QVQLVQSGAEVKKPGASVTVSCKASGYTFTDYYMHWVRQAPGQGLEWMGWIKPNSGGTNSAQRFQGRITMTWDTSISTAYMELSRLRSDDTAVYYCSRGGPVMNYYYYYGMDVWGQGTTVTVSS VL: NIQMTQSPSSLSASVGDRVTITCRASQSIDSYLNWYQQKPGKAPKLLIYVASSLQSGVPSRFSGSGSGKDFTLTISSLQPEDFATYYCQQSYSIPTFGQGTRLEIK stay below 400000 M⁻¹ s⁻¹?
Output line: Satisfied

Input line: Does the reported kon of mAb25479 (antibody, V domains shown) VH: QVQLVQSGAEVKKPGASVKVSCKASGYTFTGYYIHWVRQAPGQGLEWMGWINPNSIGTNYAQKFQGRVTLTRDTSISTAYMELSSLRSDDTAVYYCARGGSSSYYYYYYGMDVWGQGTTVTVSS VL: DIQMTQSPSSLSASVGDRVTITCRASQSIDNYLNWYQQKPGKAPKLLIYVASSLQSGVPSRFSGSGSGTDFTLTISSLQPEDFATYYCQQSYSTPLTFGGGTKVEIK stay below 400000 M⁻¹ s⁻¹?
Output line: Satisfied

Input line: Does the reported kon of mAb25497 (antibody, V domains shown) VH: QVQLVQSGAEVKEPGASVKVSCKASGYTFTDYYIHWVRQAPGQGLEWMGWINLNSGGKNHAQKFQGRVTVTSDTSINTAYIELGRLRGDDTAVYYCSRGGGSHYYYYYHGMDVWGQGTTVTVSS VL: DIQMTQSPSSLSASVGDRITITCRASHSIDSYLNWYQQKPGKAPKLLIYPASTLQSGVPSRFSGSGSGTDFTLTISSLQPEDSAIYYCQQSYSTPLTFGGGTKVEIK stay below 400000 M⁻¹ s⁻¹?
Output line: Satisfied

Input line: Does the reported kon of mAb22035 (antibody, V domains shown) VH: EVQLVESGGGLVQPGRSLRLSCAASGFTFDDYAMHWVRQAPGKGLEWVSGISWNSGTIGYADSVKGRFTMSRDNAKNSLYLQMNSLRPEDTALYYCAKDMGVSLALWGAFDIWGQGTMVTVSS VL: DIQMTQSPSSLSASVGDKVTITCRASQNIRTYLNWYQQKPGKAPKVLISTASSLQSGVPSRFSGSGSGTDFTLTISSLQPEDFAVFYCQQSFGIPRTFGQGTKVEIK stay below 400000 M⁻¹ s⁻¹?
Output line: Not satisfied
